- Tested on: M14;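 note: growth inhibition of M14 cells, read out with a cell viability assay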
- experimental.protocol: cells
- Type: functional, cell-based, Homo sapiens
- cond: Homo sapiens, M14
- Description: SANGER: Inhibition of human M14 cell growth in a cell viability assay.
pIC50: −log10 of the molar value.
Hi there, I'd appreciate the recorded pIC50 for every entry that follows.

Guide cases for pIC50, answers given:
molecule | pIC50
Cn1cncc1[C@@](N)(c1ccc(Cl)cc1)c1ccc2c(c1)c(-c1cccc(Cl)c1)cc(=O)n2C | < 4.80
O=c1cc(-c2cccc3c2Sc2ccccc2S3)oc(N2CCOCC2)c1 | < 5.00
CN(Cc1cnc2nc(N)nc(N)c2n1)c1ccc(C(=O)N[C@@H](CCC(=O)O)C(=O)O)cc1 [METHOTREXATE] | < 6.70
Nc1ccn([C@@H]2O[C@H](CO)[C@@H](O)[C@@H]2O)c(=O)n1 | 6.20
CCOc1nc(NC(=O)Cc2cc(OC)ccc2OC)cc(N)c1C#N | < 5.00

Query: Quick one: pIC50 for Cc1ccc(Nc2nccc(N(C)c3ccc4c(C)n(C)nc4c3)n2)cc1S(N)(=O)=O ?
Reply: < 5.10

----------
- Tested on: MEG-01;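 note: growth inhibition of MEG-01 cells, read out by a cell viability assay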
- experimental.protocol: cells
- Type: functional, cell-based
- cond: Homo sapiens
- Description: SANGER: Inhibition of human MEG-01 cell growth in a cell viability assay.
assay.metric: IC50

Required: IC50, one value per molecule below.
1. COc1cc(F)c(F)c(Nc2ccc(I)cc2F)c1NS(=O)(=O)C1(CC(O)CO)CC1 (stereo not drawn)
2. O=c1cc(-c2cccc3c2Sc2ccccc2S3)oc(N2CCOCC2)c1 [KU-55933]
3. CN1CCN(CCOc2cc(OC3CCOCC3)c3c(Nc4c(Cl)ccc5c4OCO5)ncnc3c2)CC1 [SARACATINIB]
4. CC(=O)O[C@@H]1[C@@H](OC(C)=O)[C@@H](O)[C@H](Oc2c(-c3ccc(O)cc3)oc3cc(O)cc(O)c3c2=O)O[C@H]1C
5. CN(c1ncccc1CNc1nc(Nc2ccc3c(c2)CC(=O)N3)ncc1C(F)(F)F)S(C)(=O)=O [PF-00562271]
6. Cn1cc(C2=C(c3ccc(Cl)cc3Cl)C(=O)NC2=O)c2ccccc21 [SB-216763]
7. CCc1nc(N)nc(N)c1-c1ccc(Cl)cc1 [PYRIMETHAMINE]
8. Cc1cnc(-c2cnc(NCCNc3ccc(C#N)cn3)nc2-c2ccc(Cl)cc2Cl)[nH]1 [LADUVIGLUSIB]

Reply:
786 nM
> 10000 nM
237 nM
> 10000 nM
> 2560 nM
> 10000 nM
11800 nM
> 2560 nM

----------
- Test system: NCI-H1693
- experimental.protocol: cells
- Assay type: functional, cell-based, Homo sapiens
- cond: Homo sapiens, NCI-H1693
- Description: SANGER: Inhibition of human NCI-H1693 cell growth in a cell viability assay.
pIC50: −log10 of the molar value.
assay.metric: pIC50

compound | pIC50
COc1cc(F)c(F)c(Nc2ccc(I)cc2F)c1NS(=O)(=O)C1(CC(O)CO)CC1 (stereo unspecified) | < 5.30

Required: pIC50, one value per compound below.
1. CN(c1ncccc1CNc1nc(Nc2ccc3c(c2)CC(=O)N3)ncc1C(F)(F)F)S(C)(=O)=O [PF-00562271]
2. C[C@]1(O)C[C@@H](c2nc(-c3ccc4ccc(-c5ccccc5)nc4c3)c3c(N)nccn32)C1 [LINSITINIB]
3. Cc1ccc(Nc2nccc(N(C)c3ccc4c(C)n(C)nc4c3)n2)cc1S(N)(=O)=O [PAZOPANIB]
4. COC(=O)CNC(=O)C(=O)OC
5. CN(C)C/C=C/C(=O)Nc1cc2c(Nc3ccc(F)c(Cl)c3)ncnc2cc1O[C@H]1CCOC1 [AFATINIB]

Reply:
1. < 5.59
2. < 5.59
3. < 5.10
4. 2.42
5. < 6.30

----------
- Test system: SK-UT-1;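 note: growth inhibition of SK-UT-1 cells, measured by a cell viability assay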
- experimental.protocol: cells
- Format: functional, cell-based, Homo sapiens
- cond: Homo sapiens, SK-UT-1
- Description: SANGER: Inhibition of human SK-UT-1 cell growth in a cell viability assay.
Hi there, I'd appreciate the recorded pIC50 for every entry that follows.
Answers are plain numbers, as −log10 of the molar value.

Guide cases for pIC50, answers given:
compound | assay.metric | numeric.result
CCC(=O)N1CCN(c2ccc(-n3c(=O)ccc4cnc5ccc(-c6cnc7ccccc7c6)cc5c43)cc2C(F)(F)F)CC1 | pIC50 | 7.65
COc1cc([C@@H]2c3cc4c(cc3[C@@H](O[C@@H]3O[C@@H]5CO[C@@H](C)O[C@H]5[C@H](O)[C@H]3O)[C@H]3COC(=O)[C@H]23)OCO4)cc(OC)c1O [ETOPOSIDE] | pIC50 | 7.37
O=C(NOCC1CC1)c1ccc(F)c(F)c1Nc1ccc(I)cc1Cl | pIC50 | 5.05
Cn1cncc1[C@@](N)(c1ccc(Cl)cc1)c1ccc2c(c1)c(-c1cccc(Cl)c1)cc(=O)n2C | pIC50 | 5.31

Please find the next compound below.
Query: Provide value of pIC50 for this record tested with SK-UT-1: COC(=O)CNC(=O)C(=O)OC
Reply: 2.98

----------
Hi there, I'd appreciate the recorded IC50 for every entry that follows.
- System: NCI-H2170;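 note: cell viability assay measuring growth inhibition of human NCI-H2170 cancer cells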
- experimental.protocol: cells
- Type: functional, cell-based, Homo sapiens
- cond: Homo sapiens, NCI-H2170
- Description: SANGER: Inhibition of human NCI-H2170 cell growth in a cell viability assay.

Required: IC50, one value per compound below.
1. COC(=O)CNC(=O)C(=O)OC
2. Cc1ccc(Nc2nccc(N(C)c3ccc4c(C)n(C)nc4c3)n2)cc1S(N)(=O)=O
3. CCOc1nc(NC(=O)Cc2cc(OC)ccc2OC)cc(N)c1C#N
4. C[C@]1(O)C[C@@H](c2nc(-c3ccc4ccc(-c5ccccc5)nc4c3)c3c(N)nccn32)C1
5. O=C1N=C(NCc2cccs2)S/C1=C\c1ccc2ncccc2c1
6. COc1ccc(-c2ccc3c(N4CCOC[C@@H]4C)nc(N4CCOC[C@@H]4C)nc3n2)cc1CO
7. O=C(NOCC1CC1)c1ccc(F)c(F)c1Nc1ccc(I)cc1Cl

Reply:
> 4000 µM
> 8 µM
> 10 µM
> 2.56 µM
> 5 µM
> 2 µM
> 10 µM

Query: Provide value of IC50 for this record tested with NCI-H2170: COc1cc(F)c(F)c(Nc2ccc(I)cc2F)c1NS(=O)(=O)C1(CC(O)CO)CC1 (stereo not drawn)
Reply: > 5 µM

----------
- System: HuP-T3
- experimental.protocol: cells
- Assay type: functional, cell-based, Homo sapiens
- cond: Homo sapiens, HuP-T3
- Description: SANGER: Inhibition of human HuP-T3 cell growth in a cell viability assay.
Hi there, I'd appreciate the recorded IC50 for every entry that follows.

molecule | IC50
COc1cc([C@@H]2c3cc4c(cc3[C@@H](O[C@@H]3O[C@@H]5CO[C@@H](C)O[C@H]5[C@H](O)[C@H]3O)[C@H]3COC(=O)[C@H]23)OCO4)cc(OC)c1O [ETOPOSIDE] | > 16 µM
Cn1cc(C2=C(c3ccc(Cl)cc3Cl)C(=O)NC2=O)c2ccccc21 | > 10 µM
O=C(c1cc(Cc2n[nH]c(=O)c3ccccc23)ccc1F)N1CCN(C(=O)C2CC2)CC1 | > 5 µM

Required: IC50, one value per molecule below.
1. COc1cc(F)c(F)c(Nc2ccc(I)cc2F)c1NS(=O)(=O)C1(CC(O)CO)CC1 (stereo unspecified)
2. CCOc1nc(NC(=O)Cc2cc(OC)ccc2OC)cc(N)c1C#N
3. CCC1=C[C@@H]2CN(C1)Cc1c([nH]c3ccccc13)[C@@](C(=O)OC)(c1cc3c(cc1OC)N(C)[C@H]1[C@@](O)(C(=O)OC)[C@H](OC(C)=O)[C@]4(CC)C=CCN5CC[C@]31[C@@H]54)C2

Reply:
> 5 µM
> 10 µM
> 0.064 µM

----------
Hi there, I'd appreciate the recorded pIC50 for every entry that follows.
- Test system: BT-474
- experimental.protocol: cells
- Assay type: functional, cell-based, Homo sapiens
- cond: Homo sapiens, BT-474
- Description: SANGER: Inhibition of human BT-474 cell growth in a cell viability assay.
pIC50: −log10 of the molar value.

compound | target.under.test | pIC50
CC(=O)O[C@@H]1[C@@H](OC(C)=O)[C@@H](O)[C@H](Oc2c(-c3ccc(O)cc3)oc3cc(O)cc(O)c3c2=O)O[C@H]1C | BT-474 | < 5.00

Required: pIC50, one value per compound below.
1. CNC(=O)c1cc(Oc2ccc(NC(=O)Nc3ccc(Cl)c(C(F)(F)F)c3)cc2)ccn1
2. COc1ccc(C2=N[C@@H](c3ccc(Cl)cc3)[C@@H](c3ccc(Cl)cc3)N2C(=O)N2CCNC(=O)C2)c(OC(C)C)c1
3. COc1cc([C@@H]2c3cc4c(cc3[C@@H](O[C@@H]3O[C@@H]5CO[C@@H](C)O[C@H]5[C@H](O)[C@H]3O)[C@H]3COC(=O)[C@H]23)OCO4)cc(OC)c1O [ETOPOSIDE]
4. COc1cc(F)c(F)c(Nc2ccc(I)cc2F)c1NS(=O)(=O)C1(CC(O)CO)CC1 (stereo unspecified)
5. CO[C@H]1C[C@@H]2CC[C@@H](C)[C@@](O)(O2)C(=O)C(=O)N2CCCC[C@H]2C(=O)O[C@H]([C@H](C)C[C@@H]2CC[C@@H](O)[C@H](OC)C2)CC(=O)[C@H](C)/C=C(\C)[C@@H](O)[C@@H](OC)C(=O)[C@H](C)C[C@H](C)/C=C/C=C/C=C/1C

Reply:
< 5.40
< 5.10
< 4.80
< 5.30
< 7.00
